Method description: splicing luciferase reporter signal modulators, primary screen, spliceosome inhibition project, cell-based, HEK293, splice +/- reporter (AID 1101);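 also: HEK293 cells carrying a splicing-competent luciferase reporter gene; test concentration not given here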
Experimental conditions: luminescence, 24 h, higher = more signal, called active from +8 up or from −8 down
Calls of active or inactive are those of the source.
Measurement name: z-score

| Smiles entry | Result |
| --- | --- |
| C=C(C1=CCN(S(=O)(=O)c2ccc(C)cc2)C1)[C@@H](OC(C)=O)[C@@H]1CCCN1S(=O)(=O)c1ccccc1[N+](=O)[O-] | -3.24 (inactive) |
| O=C(NCC(F)(F)F)[C@@H]1c2ccccc2C(=O)N(C2Cc3ccccc3C2)[C@H]1c1ccc(CO)cc1 | -0.658 (inactive) |
| NC(=O)NCC#Cc1ccc2c(c1)[C@]1(C(=O)N2)[C@H](c2ccc(OCCO)cc2)N2[C@H](c3ccccc3)[C@H](c3ccccc3)OC(=O)[C@H]2[C@@H]1C(=O)Nc1nc2ccccc2s1 | -1 (inactive) |
